# assayed target: TDP-43 (Homo sapiens, UniProt Q13148 1-414)
# Sequence (Q13148 whole entry): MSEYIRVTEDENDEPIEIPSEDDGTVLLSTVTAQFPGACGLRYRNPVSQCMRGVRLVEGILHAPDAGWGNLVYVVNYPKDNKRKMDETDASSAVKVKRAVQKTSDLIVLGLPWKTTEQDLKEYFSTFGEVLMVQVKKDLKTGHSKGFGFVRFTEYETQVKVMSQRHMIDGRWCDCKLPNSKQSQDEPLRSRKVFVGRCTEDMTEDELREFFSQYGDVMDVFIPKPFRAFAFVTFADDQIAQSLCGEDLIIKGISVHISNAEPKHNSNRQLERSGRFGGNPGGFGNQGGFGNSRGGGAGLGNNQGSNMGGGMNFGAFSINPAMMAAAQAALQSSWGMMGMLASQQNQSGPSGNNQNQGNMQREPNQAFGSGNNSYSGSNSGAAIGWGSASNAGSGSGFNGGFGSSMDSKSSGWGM
# test details: RNA Bind-n-Seq with designed 260-mer pool; 25 mM Tris-HCl, 150 mM KCl, 3 mM MgCl2, BSA (printed 500 mg/mL), 20 units/mL SUPERase IN; pH not stated; 500 nM RNA pool, 1 h, 4 C; TDP-43 5, 50, 500 nM; high values mean tight binding
# experimental context: protein: recombinant; tags: SBP (GST cleaved off with PreScission; pGEX-GST-SBP)
Whole data set: some 9,900 sequences, median “r (bound/input frequency ratio)” near 0.7, cut for the highest 2% near 6.5. What follows is part of a selection rich in the highest values, with near analogues and random picks from the rest.
binding signal by entry:

binder	result
ENSMUSG00000028439.182|Fam219a (ssRNA) RNA: GGGAGUUCUACAGUCCGACGAUCGCUUCGAUAUCCGCAUGCUAUGUGUGUGUGCGUGUGCGUGUGUGUAUGUGUGUGCGUGUGUGUGUGUGUGUGUUGUACCCGAGUGUGUGUUGAGCCUAUCUGUCCAGGGAACCAGAUUGGUGUCCGAGAUGAGGAAAUGGCUGUGGCCUGGGAAAUCAGUGAGAGGCCGCUUGGGAAUGAGAAUGCAGUGGACUGAAAGCACAGCCUGGCCAUCUGGAACCUGGGUUCUGGUCCCAGCCUCGGCAUUCUCCCUGAGCUCCUAAGCAAUUCCCAGGCUUCUCUCUUGCGGUCGCACUAGUGUGGAAUUCUCGGGUGUCAAGG	6.82 R (bound/input frequency ratio)

Here is another binder to look at.
For record ENSMUSG00000028439.181|Fam219a|7:16;18:22;24:40;42:59;69:76 (ssRNA) RNA: GGGAGUUCUACAGUCCGACGAUCGCUUCGAUAUCCGCAUGCUAUGUGCCACACACACACCCACACCCACACACAUACACACACCCACACACACACACACACAUGUACCCGACACACACAUGAGCCUAUCUGUCCAGGGAACCAGAUUGGUGUCCGAGAUGAGGAAAUGGCUGUGGCCUGGGAAAUCAGUGAGAGGCCGCUUGGGAAUGAGAAUGCAGUGGACUGAAAGCACAGCCUGGCCAUCUGGAACCUGGGUUCUGGUCCCAGCCUCGGCAUUCUCCCUGAGCUCCUAAGCAAUUCCCAGCUCUUGCGGUCGCACUAGUGUGGAAUUCUCGGGUGUCAAGG the listed binding signal is 3.16 R (bound/input frequency ratio)
